Experimental Details: Protease stability in simulated intestinal fluids (FaSSIF) (Table 7)
Assay type: in vitro ADME
Particulars: fassif with pancreatin, 240 min, 37° C., read-out: Remaining percentage of peptide compound, FaSSIF 240 (min)
Numbered stars: 1 amine (or outer) side, 2 acyl side, 3 side chain; on linkers, the order of the positions; unused ones are H or OH. Bridge positions count the residues as written; N and C are the ends. Square brackets hold non-standard residues; d marks the D form. Peptide text beside a SMILES is read from it. * marks the point of attachment. Lys(Me,(CH2)4NMe(CH2)4CO) = CN(CCCCC(=O)[*:3])CCCCN(C)CCCC[C@H](N[*:1])C(=O)[*:2]; 2Nal = N[C@@H](Cc1ccc2ccccc2c1)C(=O)O; 3Pal = N[C@@H](Cc1cccnc1)C(=O)O; Thp = NC1(C(=O)O)CCOCC1; Me2NCH2CH2 = CN(C)CC*; Sar = CNCC(=O)O

# Molecule, remaining at 4 h, 1 µM [%]
data = [
    ("CN(C)CCOc1ccc(C[C@@H]2NC(=O)C3(CCOCC3)NC(=O)[C@H](CCC(N)=O)NC(=O)[C@H](Cc3c[nH]c4ccccc34)NC(=O)CCCCN(C)CCCCN(C)CCCC[C@@H](C(=O)N[C@@H](CO)C(=O)N[C@@H](Cc3cccnc3)C(=O)N(C)CC(N)=O)NC(=O)C3(CCOCC3)NC(=O)[C@H](Cc3ccc4ccccc4c3)NC2=O)cc1 [compound 43] (WQ[Thp]Y(Me2NCH2CH2)[2Nal][Thp][Lys(Me,(CH2)4NMe(CH2)4CO)]S[3Pal][Sar]-NH2; lactam N-7)", 75),
]

----------
# solubility at 2 h values compiled below
Experimental Details: Solubility of peptide compounds in buffer formulations (Table 5)
Type: physicochemical
Particulars: Buffer pH 1.1 (head; method: 50 mM HCl pH 1.2), 2 h agitation, target 1 mg/ml; read-out: Solubility, Buffer pH 1.1
Numbered stars: 1 amine (or outer) side, 2 acyl side, 3 side chain; on linkers, the order of the positions; unused ones are H or OH. Bridge positions count the residues as written; N and C are the ends. Square brackets hold non-standard residues; d marks the D form. Peptide text beside a SMILES is read from it. * marks the point of attachment. Lys(Me,(CH2)4NMe(CH2)4CO) = CN(CCCCC(=O)[*:3])CCCCN(C)CCCC[C@H](N[*:1])C(=O)[*:2]; Trp(7-Me) = Cc1cccc2c(C[C@H](N)C(=O)O)c[nH]c12; Trp(1-Me) = Cn1cc(C[C@H](N)C(=O)O)c2ccccc21; Sebacoyl = O=C(CCCCCCCCC(=O)[*:2])[*:1]; 2Nal = N[C@@H](Cc1ccc2ccccc2c1)C(=O)O; 3Pal = N[C@@H](Cc1cccnc1)C(=O)O; Thp = NC1(C(=O)O)CCOCC1; Me2NCH2CH2 = CN(C)CC*; Aib = CC(C)(N)C(=O)O; Sar = CNCC(=O)O

# Molecule, solubility at 2 h
data = [
    ("CN(C)CCOc1ccc(C[C@@H]2NC(=O)C3(CCOCC3)NC(=O)[C@H](CCC(N)=O)NC(=O)[C@H](Cc3cn(C)c4ccccc34)NC(=O)CCCCN(C)CCCCN(C)CCCC[C@@H](C(=O)NCC(=O)N[C@@H](Cc3cccnc3)C(=O)N(C)CC(N)=O)NC(=O)C(C)(C)NC(=O)[C@H](Cc3ccc4ccccc4c3)NC2=O)cc1 [compound 30] ([Trp(1-Me)]Q[Thp]Y(Me2NCH2CH2)[2Nal][Aib][Lys(Me,(CH2)4NMe(CH2)4CO)]G[3Pal][Sar]-NH2; lactam N-7)", "≥ 940 µg/mL"),
    ("Cc1cccc2c(C[C@@H]3NC(=O)CCCCCCCCC(=O)NCCCC[C@@H](C(=O)N[C@@H](CC(N)=O)C(=O)N[C@@H](Cc4cccnc4)C(=O)N(C)CC(N)=O)NC(=O)C(C)(C)NC(=O)[C@H](Cc4ccc5ccccc5c4)NC(=O)[C@H](Cc4ccc(OCCN(C)C)cc4)NC(=O)C4(CCOCC4)NC(=O)[C@H](CCC(N)=O)NC3=O)c[nH]c12 [compound 11] ([Trp(7-Me)]Q[Thp]Y(Me2NCH2CH2)[2Nal][Aib]KN[3Pal][Sar]-NH2; linker N-7 via Sebacoyl)", "≥ 940 µg/mL"),
]

----------
System: IL-23 induced STAT3 signaling (IL-23 receptor) in HEK-Blue IL-23 cells
Experimental Details: Inhibition of IL-23 induced STAT3 signaling in HEK-Blue IL-23 cells, SEAP reporter (Table 9)
Type: cell-based
Particulars: human IL23 0.25 ng/ml, overnight, read-out: Inhibition of IL-23 induced pSTAT3 (IC50 nM)
Numbered stars: 1 amine (or outer) side, 2 acyl side, 3 side chain; on linkers, the order of the positions; unused ones are H or OH. Bridge positions count the residues as written; N and C are the ends. Square brackets hold non-standard residues; d marks the D form. Peptide text beside a SMILES is read from it. * marks the point of attachment. Lys(Me,(CH2)4NMe(CH2)4CO) = CN(CCCCC(=O)[*:3])CCCCN(C)CCCC[C@H](N[*:1])C(=O)[*:2]; X3 = Cc1cccc2c(C[C@H](N[*:1])C(=O)[*:2])cn(C)c12; Trp(7-Me) = Cc1cccc2c(C[C@H](N)C(=O)O)c[nH]c12; NH(2-(3-pyridyl)ethyl) = c1cncc(CCN*)c1; αMeLys(Me2) = CN(C)CCCC[C@](C)(N)C(=O)O; 2Nal = N[C@@H](Cc1ccc2ccccc2c1)C(=O)O; 3Pal = N[C@@H](Cc1cccnc1)C(=O)O; Aun = NCCCCCCCCCCC(=O)O; Thp = NC1(C(=O)O)CCOCC1; Me2NCH2CH2 = CN(C)CC*; Aib = CC(C)(N)C(=O)O; Sar = CNCC(=O)O

# Compound, Unit Symbol, IC50
data = [
    ("Cc1cccc2c(C[C@@H]3NC(=O)CCCCN(C)CCCCN(C)CCCC[C@@H](C(=O)NCC(=O)NCCc4cccnc4)NC(=O)C(C)(C)NC(=O)[C@H](Cc4ccc5ccccc5c4)NC(=O)[C@H](Cc4ccc(OCCN(C)C)cc4)NC(=O)C4(CCOCC4)NC(=O)[C@H](CC(C)C)NC3=O)cn(C)c12 [compound 49] ([X3]L[Thp]Y(Me2NCH2CH2)[2Nal][Aib][Lys(Me,(CH2)4NMe(CH2)4CO)]G-{NH(2-(3-pyridyl)ethyl)}; lactam N-7)", "nM", 35.4),
    ("Cc1cccc2c(C[C@@H]3NC(=O)CCCCCCCCCCNC(=O)CC[C@@H](C(=O)N[C@@H](CC(N)=O)C(=O)N[C@@H](Cc4cccnc4)C(=O)N(C)CC(N)=O)NC(=O)[C@](C)(CCCCN(C)C)NC(=O)[C@H](Cc4ccc5ccccc5c4)NC(=O)[C@H](Cc4ccc(OCCN(C)C)cc4)NC(=O)C4(CCOCC4)NC(=O)[C@H](CCC(N)=O)NC3=O)c[nH]c12 [compound 20] ([Aun][Trp(7-Me)]Q[Thp]Y(Me2NCH2CH2)[2Nal][αMeLys(Me2)]EN[3Pal][Sar]-NH2; lactam N-8)", "nM", 0.23),
]

----------
Experimental Details: Protease stability in simulated intestinal fluids (FaSSIF) (Table 7)
Assay type: in vitro ADME
Particulars: fassif with pancreatin, 240 min, 37° C., read-out: Remaining percentage of peptide compound, FaSSIF 240 (min)
Numbered stars: 1 amine (or outer) side, 2 acyl side, 3 side chain; on linkers, the order of the positions; unused ones are H or OH. Bridge positions count the residues as written; N and C are the ends. Square brackets hold non-standard residues; d marks the D form. Peptide text beside a SMILES is read from it. * marks the point of attachment. Lys(Me,(CH2)4NMe(CH2)5CO) = CN(CCCCCC(=O)[*:3])CCCCN(C)CCCC[C@H](N[*:1])C(=O)[*:2]; Trp(7-Me) = Cc1cccc2c(C[C@H](N)C(=O)O)c[nH]c12; αMeLys(Me2) = CN(C)CCCC[C@](C)(N)C(=O)O; 2Nal = N[C@@H](Cc1ccc2ccccc2c1)C(=O)O; 3Pal = N[C@@H](Cc1cccnc1)C(=O)O; Thp = NC1(C(=O)O)CCOCC1; Me2NCH2CH2 = CN(C)CC*; Sar = CNCC(=O)O

# Molecule, remaining at 4 h, 1 µM
data = [
    ("CC(=O)NCCCC[C@@H]1NC(=O)[C@H](Cc2c[nH]c3c(C)cccc23)NC(=O)CCCCCN(C)CCCCN(C)CCCC[C@@H](C(=O)N[C@@H](CC(N)=O)C(=O)N[C@@H](Cc2cccnc2)C(=O)N(C)CC(N)=O)NC(=O)[C@](C)(CCCCN(C)C)NC(=O)[C@H](Cc2ccc3ccccc3c2)NC(=O)[C@H](Cc2ccc(OCCN(C)C)cc2)NC(=O)C2(CCOCC2)NC1=O [compound 34] ([Trp(7-Me)]K(Ac)[Thp]Y(Me2NCH2CH2)[2Nal][αMeLys(Me2)][Lys(Me,(CH2)4NMe(CH2)5CO)]N[3Pal][Sar]-NH2; lactam N-7)", "100%"),
]
